Values were extracted from patent US7320785B2.

- System: DARPP-32
- ASSAY PROCEDURE: DARPP-32 phosphorylation in mouse brain slices, immunoblotting with phosphorylation state-specific antibodies
- TEST PARAMETERS: neostriatal slices; compound at 100 μM; 2 min incubation; vehicle control = 100
Marks after values point to notes of the source that are not given here.
Listing: Percent Phospho-Thr34 of selected compounds

Past entries and their recorded results:
>>> value_observed("COc1cc(CC(C)N)c(OC)cc1I.Cl (racemic) [DOI]")
"144(16.7) Percent"
>>> value_observed("NC1CCN(c2cccc(Cl)n2)CC1 [SR 57227]")
"78(3.5)* Percent"
>>> value_observed("c1ccc2sc(N3CCN(Cc4ccc5c(c4)OCO5)CC3)nc2c1 [PPB]")
"218(36.1)* Percent"
>>> value_observed("COc1ccc2[nH]cc(CCN)c2c1 [5-MT, 5-methoxytryptamine]")
"261(31.5)* Percent"

In the following, a different compound is considered.
Enquiry: Missing value: Percent Phospho-Thr34, DARPP-32, entry NCCNS(=O)(=O)c1ccc(Cl)c2ccncc12 [CK1-7] . Fill in?
Return: 102(11.5) Percent

----------
- System: DARPP-32
- ASSAY PROCEDURE: DARPP-32 phosphorylation in mouse brain slices, immunoblotting with phosphorylation state-specific antibodies
- TEST PARAMETERS: Mus musculus, 2 min, read-out: EC50 for effect on DARPP-32 phosphorylation at Ser137
MEASUREMENT KIND: pEC50
Worth noting: pEC50 values are minus log10 of concentrations stated in mol/L.

Enquiry: // query pEC50 value for entry "NCCc1c[nH]c2ccc(O)cc12"
Return: 4.42

----------
- Test system: DARPP-32
- ASSAY PROCEDURE: DARPP-32 phosphorylation in mouse brain slices, immunoblotting with phosphorylation state-specific antibodies
- TEST PARAMETERS: Mus musculus, 2 min, read-out: Percent Phospho-Thr34
MEASUREMENT KIND: activity at 10 µM
Record the result as number plus unit.

Past entries and their recorded results:
>>> value_observed("CN1CCN(C2=Nc3cc(Cl)ccc3Nc3ccccc32)CC1")
"124%"
>>> value_observed("CN1CCc2cc(Cl)c(O)cc2[C@@H](c2ccccc2)C1")
"76%"
>>> value_observed("O=C(c1ccc(F)cc1)C1CCN(CCn2c(=O)[nH]c3ccccc3c2=O)CC1")
"94%"

Enquiry: // query activity at 10 µM value for entry C=CCN1CCc2c(cc(O)c(O)c2Cl)C(c2ccccc2)C1 (centres unmarked)
Return: 552%

Enquiry: Quick one: CCN1CCC[C@H]1CNC(=O)c1c(O)c(Cl)cc(Cl)c1OC [Raclopride]
Return: 150%
